The origin of these recorded values is PubChem BioAssay AID1159580.

experiment: chemical genetic growth profiling, strain panel (AID 1159580);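 further: tested at 20 µM; growth read once vehicle control cultures reached saturation at 30 °C; 1 = growth at the plate median or of vehicle wells; lower values mean less growth of the strain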; details: S. cerevisiae deletion strains, growth OD, locus YNR052C, strain pop2, active compounds read low
Hit rate of the full screen: of about 5,500 compounds, about 2,000 (36%) were called active. Roughly 18% stayed inconclusive and do not appear here. This is one part of the list.
quantity measured: normalized growth
The reply should be a number, written without any unit.

Observe how each entry below is paired with its result.
molecule: CCC(=O)OC1[C@@H]2CC3=C4CC(=O)O[C@@H](c5ccoc5)[C@]4(C)CCC3[C@@](C)(C2=O)[C@@H](CC(=O)OC)C1(C)C (stereo partly drawn)
recorded result: 1.03
--
molecule: N[C@@H](C(=O)O)[C@@H](O)[C@H](O)[C@H](O)CO
recorded result: 1.01
--
molecule: O=c1oc2ccccc2cc1O
recorded result: 0.948
--
molecule: O=c1[nH]c(=O)n(C2C[C@H](O)[C@@H](CO)O2)cc1C(F)(F)F (stereo partly drawn)
recorded result: 0.992
--
molecule: NCCCNCCSP(=O)(O)O
recorded result: 0.986

Form field normalized growth, entry C[C@@H]1CC[C@H]2C(C)(C)C3CC12CC[C@@]3(C)O (stereo partly drawn) : 0.865

Form field normalized growth, entry C=NC(C(=O)NC1C(=O)N2C1SC(C)(C)C2C(=O)O)c1ccccc1 (stereo not drawn) : 1.02
